B1: HSP90AB1 (parent)
chain: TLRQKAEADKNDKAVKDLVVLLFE

Variants of: B1
Assay overview: protein stability index of a GFP-peptide fusion (GPS, HEK-293T) (PSI 1-6); higher = more stable;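 note: lentivirally expressed fusions sorted by FACS into six bins by GFP to DsRed ratio, PSI derived from sequencing read proportions per bin multiplied by bin number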
Details: c terminus: a fixed tail appended
# label = true if protein stability index >= 3 else false

# count of solved cases: 6
K5L; true
D17G; false
T1P; true
E24H; false
A8L; false
V19H; true

[in] Could you tell me if the measured protein stability index of F23N reaches 3 or more?
[out] true
